Listed here: items and their measured ELISA signal.
molecular target: T1, Recombinant Human DLL4 (delta-like protein 4) (human, UniProt Q9NR61 27-524); assay: ELISA, DLL4 coated on plate, Fab at 50 nM (2-fold dilution series), absorbance at 450 nm
T1 construct: Bought recombinant human DLL4 coated on the ELISA plate; also called rHuman DLL4
I'd appreciate a reply containing only the number, no unit.

1) Fab VH5-51_IGHD5-18*01>3_IGHJ4*01 G100K/G104T G24T/S28R/G35V (KT TRV) & V3-4_IGLJ1*01 V91L/S96P S52G (LP S52G) (Fab, V domains shown, Fab; Expressed in E. coli with CH1 (plasmid A, His6 and Flag tags) and lambda CL (plasmid E); also called H:KT TRV & L:LP S52G) VH: EVQLVQSGAEVKKPGESLKISCKTSGYRFTSYWIVWVRQMPGKGLEWMGIIYPGDSDTRYSPSFQGQVTISADKSISTAYLQWSSLKASDTAMYYCARRKYSYTYDYFDYWGQGTLVTVSS VL: QTVVTQEPSFSVSPGGTVTLTCGLSSGSVSTSYYPSWYQQTPGQAPRTLIYGTNTRSSGVPDRFSGSILGNKAALTITGAQADDESDYYCLLYMGPGISYVFGTGTKVTVL ... 1.02

QUERY: Indicate the recorded ELISA signal value for this binder: Fab VH5-51_IGHD5-18*01>3_IGHJ4*01 G100K/G104T G24A/S28R/G35V (KT ARV) & V3-4_IGLJ1*01 V91L/S96P S52V (Fab, V domains shown, Fab; Expressed in E. coli with CH1 (plasmid A, His6 and Flag tags) and lambda CL (plasmid E); The light-chain S52 variants were made on the KT TRV heavy chain (T0104); also called G100K/G104T G24A/S28R/G35V & V91L/S96P S52V) VH: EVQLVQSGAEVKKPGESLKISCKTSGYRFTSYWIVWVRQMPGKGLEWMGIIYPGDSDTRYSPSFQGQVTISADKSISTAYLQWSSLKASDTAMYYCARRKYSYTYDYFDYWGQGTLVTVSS VL: QTVVTQEPSFSVSPGGTVTLTCGLSSGSVSTSYYPSWYQQTPGQAPRTLIYVTNTRSSGVPDRFSGSILGNKAALTITGAQADDESDYYCLLYMGPGISYVFGTGTKVTVL
RESULT: 0.74

QUERY: Quote ELISA signal reported for Fab VH5-51_IGHD5-18*01>3_IGHJ4*01 G100K/G104T G24L/S28R/G35V (KT LRV) & V3-4_IGLJ1*01 V91L/S96P S52M (Fab, V domains shown, Fab; Expressed in E. coli with CH1 (plasmid A, His6 and Flag tags) and lambda CL (plasmid E); also called G100K/G104T G24L/S28R/G35V & V91L/S96P S52M) VH: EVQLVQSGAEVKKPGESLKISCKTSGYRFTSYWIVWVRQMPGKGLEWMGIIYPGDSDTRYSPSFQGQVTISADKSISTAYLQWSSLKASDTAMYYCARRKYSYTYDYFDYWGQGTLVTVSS VL: QTVVTQEPSFSVSPGGTVTLTCGLSSGSVSTSYYPSWYQQTPGQAPRTLIYMTNTRSSGVPDRFSGSILGNKAALTITGAQADDESDYYCLLYMGPGISYVFGTGTKVTVL please.
RESULT: 0.8
